# experimental-protocol: Cell viability, MTT assay
# assay-setup: human

[
  {
    "compound": "CC[C@H](CO)Nc1nc(NCc2ccccc2)c2ncn(C(C)C)c2n1 [Roscovitine, (R)-roscovitine]",
    "viability at 72 h, 25 µM": "< 60%"
  }
]

====

# tested-target: CDK5/p25 (Homo sapiens, UniProt Q00535)
# Sequence (Q00535 whole entry, species assumed): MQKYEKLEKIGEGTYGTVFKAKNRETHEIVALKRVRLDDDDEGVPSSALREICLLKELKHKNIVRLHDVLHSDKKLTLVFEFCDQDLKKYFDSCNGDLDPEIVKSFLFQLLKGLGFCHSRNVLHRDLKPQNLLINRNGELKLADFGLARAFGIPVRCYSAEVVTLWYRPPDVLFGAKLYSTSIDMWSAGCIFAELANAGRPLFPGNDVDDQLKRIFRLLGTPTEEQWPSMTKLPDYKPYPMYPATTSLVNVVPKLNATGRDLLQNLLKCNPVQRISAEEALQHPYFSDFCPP
# Sequence (Q15078 99-307 partner limits assumed, species assumed): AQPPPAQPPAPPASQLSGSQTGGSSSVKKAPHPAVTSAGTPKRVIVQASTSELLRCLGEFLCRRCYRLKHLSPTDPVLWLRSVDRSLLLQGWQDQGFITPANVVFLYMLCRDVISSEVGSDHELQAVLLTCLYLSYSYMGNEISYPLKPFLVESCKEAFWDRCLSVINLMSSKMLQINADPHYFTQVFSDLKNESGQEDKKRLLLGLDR
# experimental-protocol: protein kinase catalytic activity assay, CDK5/p25
# assay-setup: read-out: IC50 towards CDK5/p25

[
  {
    "smiles-code": "CC[C@@H](Nc1nc(NCc2cccc(C(F)(F)F)c2)c2ncn(C(C)C)c2n1)C(=O)O",
    "tested-target": "CDK5/p25 (Homo sapiens, UniProt Q00535)",
    "IC50 (µM)": 27
  },
  {
    "smiles-code": "CC[C@@H](Nc1nc(NCc2cccc(Cl)c2)c2ncn(C3CCCC3)c2n1)C(=O)O",
    "tested-target": "CDK5/p25 (Homo sapiens, UniProt Q00535)",
    "IC50 (µM)": 7.7
  },
  {
    "smiles-code": "CC[C@@H](Nc1nc(NCc2cccc(F)c2)c2ncn(C3CCCC3)c2n1)C(=O)O",
    "tested-target": "CDK5/p25 (Homo sapiens, UniProt Q00535)",
    "IC50 (µM)": 8.3
  },
  {
    "smiles-code": "CC[C@@H](Nc1nc(NCc2ccc(Cl)c(F)c2)c2ncn(C3CCCC3)c2n1)C(=O)O",
    "tested-target": "CDK5/p25 (Homo sapiens, UniProt Q00535)",
    "IC50 (µM)": 6.3
  },
  {
    "smiles-code": "CC[C@@H](Nc1nc(NCc2ccc(F)c(F)c2)c2ncn(C3CCCC3)c2n1)C(=O)O",
    "tested-target": "CDK5/p25 (Homo sapiens, UniProt Q00535)",
    "IC50 (µM)": 17
  },
  {
    "smiles-code": "CC[C@@H](Nc1nc(NCc2cccc(C(F)(F)F)c2)c2ncn(C3CCCC3)c2n1)C(=O)O",
    "tested-target": "CDK5/p25 (Homo sapiens, UniProt Q00535)",
    "IC50 (µM)": 11
  },
  {
    "smiles-code": "CC[C@@H](Nc1nc(NCc2ccccc2)c2ncn(C3CCCC3)c2n1)C(=O)O",
    "tested-target": "CDK5/p25 (Homo sapiens, UniProt Q00535)",
    "IC50 (µM)": 15
  }
]

====

# tested-target: CDK2/A (Homo sapiens, UniProt P24941)
# experimental-protocol: protein kinase catalytic activity assay, CDK2/cyclin A
# assay-setup: read-out: IC50 towards CDK2/A

[
  {
    "smiles-code": "CC[C@@H](Nc1nc(NCc2ccccc2)c2ncn(C3CCCC3)c2n1)C(=O)O",
    "IC50 [µM]": 6.3
  },
  {
    "smiles-code": "CC[C@@H](Nc1nc(NCc2ccc(Cl)c(F)c2)c2ncn(C3CCCC3)c2n1)C(=O)O",
    "IC50 [µM]": 3
  },
  {
    "smiles-code": "CC[C@@H](Nc1nc(NCc2cccc(C(F)(F)F)c2)c2ncn(C(C)C)c2n1)C(=O)O",
    "IC50 [µM]": 9
  },
  {
    "smiles-code": "CC[C@@H](Nc1nc(NCc2cccc(Cl)c2)c2ncn(C3CCCC3)c2n1)C(=O)O",
    "IC50 [µM]": 3.4
  },
  {
    "smiles-code": "CC[C@@H](Nc1nc(NCc2cccc(C(F)(F)F)c2)c2ncn(C3CCCC3)c2n1)C(=O)O",
    "IC50 [µM]": 8
  },
  {
    "smiles-code": "CC[C@@H](Nc1nc(NCc2ccc(F)c(F)c2)c2ncn(C3CCCC3)c2n1)C(=O)O",
    "IC50 [µM]": 5.1
  },
  {
    "smiles-code": "CC[C@@H](Nc1nc(NCc2cccc(F)c2)c2ncn(C3CCCC3)c2n1)C(=O)O",
    "IC50 [µM]": 5.9
  }
]

====

Recorded IC50 values for a group of compounds are listed next.
# tested-target: CK1
# experimental-protocol: protein kinase catalytic activity assay, CK1
# assay-setup: read-out: IC50 towards CK1

[
  {
    "compound": "CC[C@@H](Nc1nc(NCc2ccc(F)c(F)c2)c2ncn(C3CCCC3)c2n1)C(=O)O [MRT2-241]",
    "relational-operator": "=",
    "IC50 (µM)": 11
  },
  {
    "compound": "CC[C@@H](Nc1nc(NCc2cccc(F)c2)c2ncn(C3CCCC3)c2n1)C(=O)O [MRT2-235]",
    "relational-operator": "=",
    "IC50 (µM)": 7
  },
  {
    "compound": "CC[C@@H](Nc1nc(NCc2ccc(Cl)c(F)c2)c2ncn(C3CCCC3)c2n1)C(=O)O [MRT2-243]",
    "relational-operator": "=",
    "IC50 (µM)": 6.1
  },
  {
    "compound": "CC(C)n1cnc2c(NCc3ccccc3)nc(N[C@@H](CO)C(=O)O)nc21 [MRT2-164]",
    "relational-operator": "=",
    "IC50 (µM)": 28
  },
  {
    "compound": "CC[C@@H](Nc1nc(NCc2ccccc2)c2ncn(C(C)C)c2n1)C(=O)O [M3, reference compound]",
    "relational-operator": ">",
    "IC50 (µM)": 33
  },
  {
    "compound": "CC[C@@H](Nc1nc(NCc2cccc(Cl)c2)c2ncn(C3CCCC3)c2n1)C(=O)O [MRT2-237]",
    "relational-operator": "=",
    "IC50 (µM)": 3.33
  },
  {
    "compound": "CC[C@@H](Nc1nc(NCc2ccccc2)c2ncn(C3CCCC3)c2n1)C(=O)O [MRT2-245]",
    "relational-operator": "=",
    "IC50 (µM)": 17
  },
  {
    "compound": "CC(Nc1nc(NCc2ccccc2)c2ncn(C(C)C)c2n1)C(=O)O (stereo not shown) [MRT2-163]",
    "relational-operator": "=",
    "IC50 (µM)": 20
  },
  {
    "compound": "CC[C@@H](Nc1nc(NCc2cccc(C(F)(F)F)c2)c2ncn(C(C)C)c2n1)C(=O)O [MRT2-249]",
    "relational-operator": "=",
    "IC50 (µM)": 5
  },
  {
    "compound": "CC[C@@H](Nc1nc(NCc2cccc(C(F)(F)F)c2)c2ncn(C3CCCC3)c2n1)C(=O)O [MRT2-239]",
    "relational-operator": "=",
    "IC50 (µM)": 4
  }
]

====

# tested-target: ABCB4-WT (Homo sapiens)
# Construct: wild type (WT) ABCB4, isoform A (NM_000443.3), into pcDNA3 vector; expressed in transfected cells; host or cells: HEK-293
# Sequence (P21439 1-1279 isoform P21439-2): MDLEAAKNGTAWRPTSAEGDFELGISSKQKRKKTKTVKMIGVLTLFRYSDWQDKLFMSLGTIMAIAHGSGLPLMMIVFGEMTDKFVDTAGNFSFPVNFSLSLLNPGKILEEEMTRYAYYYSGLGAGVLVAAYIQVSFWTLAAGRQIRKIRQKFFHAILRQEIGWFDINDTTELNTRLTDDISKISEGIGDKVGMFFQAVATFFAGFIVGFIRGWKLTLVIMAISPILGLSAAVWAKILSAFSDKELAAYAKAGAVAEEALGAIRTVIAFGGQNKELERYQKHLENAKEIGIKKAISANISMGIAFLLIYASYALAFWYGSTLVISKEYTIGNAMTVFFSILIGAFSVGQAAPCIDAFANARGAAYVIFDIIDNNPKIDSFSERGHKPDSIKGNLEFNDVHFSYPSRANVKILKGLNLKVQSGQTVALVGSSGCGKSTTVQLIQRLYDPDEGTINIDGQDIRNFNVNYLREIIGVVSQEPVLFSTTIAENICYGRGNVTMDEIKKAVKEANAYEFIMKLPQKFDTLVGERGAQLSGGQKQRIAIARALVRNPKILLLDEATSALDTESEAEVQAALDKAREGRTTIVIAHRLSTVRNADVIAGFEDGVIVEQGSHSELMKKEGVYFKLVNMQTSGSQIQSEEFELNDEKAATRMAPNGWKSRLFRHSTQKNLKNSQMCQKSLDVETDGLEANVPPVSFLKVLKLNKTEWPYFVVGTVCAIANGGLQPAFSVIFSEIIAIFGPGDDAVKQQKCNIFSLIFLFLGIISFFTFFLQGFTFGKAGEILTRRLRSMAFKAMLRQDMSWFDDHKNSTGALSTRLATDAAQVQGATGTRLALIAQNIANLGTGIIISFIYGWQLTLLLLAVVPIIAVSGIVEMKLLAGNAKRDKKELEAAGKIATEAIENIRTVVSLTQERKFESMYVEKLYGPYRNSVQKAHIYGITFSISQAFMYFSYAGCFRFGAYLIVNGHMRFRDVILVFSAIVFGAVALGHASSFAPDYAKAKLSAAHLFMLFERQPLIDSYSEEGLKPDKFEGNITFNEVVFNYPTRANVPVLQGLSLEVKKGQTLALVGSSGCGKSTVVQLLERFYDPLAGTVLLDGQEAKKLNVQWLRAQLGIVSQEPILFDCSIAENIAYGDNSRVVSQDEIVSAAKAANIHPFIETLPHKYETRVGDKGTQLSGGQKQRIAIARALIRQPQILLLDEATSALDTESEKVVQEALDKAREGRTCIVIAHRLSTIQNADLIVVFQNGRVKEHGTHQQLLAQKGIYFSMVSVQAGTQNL
# experimental-protocol: ABCB4-mediated phosphatidylcholine secretion, HEK cells expressing ABCB4-WT
# Format: cell-based
# assay-setup: from dose-response curves of Fig. 4C, read-out: IC50 (µM) (min-max) on the PC secretion activity of ABCB4-WT

[
  {
    "smiles-code": "CC[C@@H](Nc1nc(NCc2ccc(Cl)c(F)c2)c2ncn(C3CCCC3)c2n1)C(=O)O",
    "measurement-unit": "µM",
    "IC50": 17.6
  },
  {
    "smiles-code": "CC[C@@H](Nc1nc(NCc2cccc(F)c2)c2ncn(C3CCCC3)c2n1)C(=O)O",
    "measurement-unit": "µM",
    "IC50": 21
  },
  {
    "smiles-code": "CC[C@@H](Nc1nc(NCc2cccc(Cl)c2)c2ncn(C3CCCC3)c2n1)C(=O)O",
    "measurement-unit": "µM",
    "IC50": 29.3
  }
]

Source of measurements: paper PMC6491434
